All figures here come from paper PMC7774954.

System: 266 human PDZ domains (PDZome)
Assay: Holdup assay (chromatographic retention, PDZome-binding profile, BI)
Parameters: key: binding intensity: 0.00 = no binding, 1.00 = maximal binding
Conditions: PDZ domain PDZRN4-1
Quantity: BI

1) CC[C@H](C)[C@H](NC(=O)[C@H](CCC(N)=O)NC(=O)[C@@H](NC(=O)[C@H](Cc1c[nH]cn1)NC(=O)[C@H](CCC(N)=O)NC(=O)[C@H](CC(=O)O)NC(=O)[C@H](CCC(=O)O)NC(=O)[C@H](CC(=O)O)NC(=O)CCC(=O)NCCCOCCOCCOCCCNC(=O)CCCC[C@@H]1SC[C@@H]2NC(=O)N[C@@H]21)[C@@H](C)O)C(=O)N[C@H](C(=O)N[C@@H](CCCCN)C(=O)N[C@H](C(=O)O)C(C)C)[C@@H](C)O    0

====

Test system: human PDZome
Experiment: Promiscuity / specificity index from PDZome affinity profile (combined holdup and FP)
Format: binding
Conditions: relative to number of tested and validated PDZ domains
Quantity: number of PDZ domains above the half-maximal binding affinity

1. CC[C@H](C)[C@H](NC(=O)[C@H](CCC(N)=O)NC(=O)[C@@H](NC(=O)[C@H](Cc1c[nH]cn1)NC(=O)[C@H](CCC(N)=O)NC(=O)[C@H](CC(=O)O)NC(=O)[C@H](CCC(=O)O)NC(=O)[C@H](CC(=O)O)NC(=O)CCC(=O)NCCCOCCOCCOCCCNC(=O)CCCC[C@@H]1SC[C@@H]2NC(=O)N[C@@H]21)[C@@H](C)O)C(=O)N[C@H](C(=O)N[C@@H](CCCCN)C(=O)N[C@H](C(=O)O)C(C)C)[C@@H](C)O    9

====

Molecular target: DLG1-1 (Homo sapiens)
Test: Holdup assay, DLG1-1
Format: binding
Conditions: DLG1-1
*1 amine or outer side, *2 acyl side, *3 side chain or, on linkers, in order; H or OH if unused. Where a SMILES comes first, the peptide text is derived from it. The star is where a group is joined. X1 = O=C(CCCC[C@@H]1SC[C@@H]2NC(=O)N[C@@H]21)NCCCOCCOCCOCCCN*; Suc = O=C(CCC(=O)[*:2])[*:1]
Measured BI, listed per entry for reference.
Quantity: BI

1. CC[C@H](C)[C@H](NC(=O)[C@H](CCC(N)=O)NC(=O)[C@@H](NC(=O)[C@H](Cc1c[nH]cn1)NC(=O)[C@H](CCC(N)=O)NC(=O)[C@H](CC(=O)O)NC(=O)[C@H](CCC(=O)O)NC(=O)[C@H](CC(=O)O)NC(=O)CCC(=O)NCCCOCCOCCOCCCNC(=O)CCCC[C@@H]1SC[C@@H]2NC(=O)N[C@@H]21)[C@@H](C)O)C(=O)N[C@H](C(=O)N[C@@H](CCCCNC(C)=O)C(=O)N[C@H](C(=O)O)C(C)C)[C@@H](C)O [PTEN_Ac]    0.168
2. CC[C@H](C)[C@H](NC(=O)[C@H](CCC(N)=O)NC(=O)[C@@H](NC(=O)[C@H](Cc1c[nH]cn1)NC(=O)[C@H](CCC(N)=O)NC(=O)[C@H](CC(=O)O)NC(=O)[C@H](CCC(=O)O)NC(=O)[C@H](CC(=O)O)NC(=O)CCC(=O)NCCCOCCOCCOCCCNC(=O)CCCC[C@@H]1SC[C@@H]2NC(=O)N[C@@H]21)[C@@H](C)O)C(=O)N[C@H](C(=O)N[C@@H](CCCNC(=N)N)C(=O)N[C@H](C(=O)O)C(C)C)[C@@H](C)O [PTEN_KR] ({X1-Suc}-DEDQHTQITRV-OH)    0.215
3. CC[C@H](C)[C@H](NC(=O)[C@H](CCC(N)=O)NC(=O)[C@@H](NC(=O)[C@H](Cc1c[nH]cn1)NC(=O)[C@H](CCC(N)=O)NC(=O)[C@H](CC(=O)O)NC(=O)[C@H](CCC(=O)O)NC(=O)[C@H](CC(=O)O)NC(=O)CCC(=O)NCCCOCCOCCOCCCNC(=O)CCCC[C@@H]1SC[C@@H]2NC(=O)N[C@@H]21)[C@@H](C)O)C(=O)N[C@H](C(=O)N[C@@H](CCCCN)C(=O)N[C@H](C(=O)O)C(C)C)[C@@H](C)O [PTEN_11]    0.109
4. CC[C@H](C)[C@H](NC(=O)[C@H](CCC(N)=O)NC(=O)[C@@H](NC(=O)[C@H](Cc1c[nH]cn1)NC(=O)[C@H](CCC(N)=O)NC(=O)[C@H](CC(=O)O)NC(=O)[C@H](CCC(=O)O)NC(=O)[C@H](CC(=O)O)NC(=O)[C@H](Cc1ccccc1)NC(=O)[C@@H]1CCCN1C(=O)CCC(=O)NCCCOCCOCCOCCCNC(=O)CCCC[C@@H]1SC[C@@H]2NC(=O)N[C@@H]21)[C@@H](C)O)C(=O)N[C@H](C(=O)N[C@@H](CCCCN)C(=O)N[C@H](C(=O)O)C(C)C)[C@@H](C)O [PTEN_13] ({X1-Suc}-PFDEDQHTQITKV-OH)    0.011

====

Measured BI, listed per entry for reference.
System: HTRA3-1
Assay: Holdup assay, HTRA3-1
Type: binding, human
*1 amine or outer side, *2 acyl side, *3 side chain or, on linkers, in order; H or OH if unused. Where a SMILES comes first, the peptide text is derived from it. The star is where a group is joined. X1 = O=C(CCCC[C@@H]1SC[C@@H]2NC(=O)N[C@@H]21)NCCCOCCOCCOCCCN*; Suc = O=C(CCC(=O)[*:2])[*:1]
Quantity: BI

1. CC[C@H](C)[C@H](NC(=O)[C@H](CCC(N)=O)NC(=O)[C@@H](NC(=O)[C@H](Cc1c[nH]cn1)NC(=O)[C@H](CCC(N)=O)NC(=O)[C@H](CC(=O)O)NC(=O)[C@H](CCC(=O)O)NC(=O)[C@H](CC(=O)O)NC(=O)CCC(=O)NCCCOCCOCCOCCCNC(=O)CCCC[C@@H]1SC[C@@H]2NC(=O)N[C@@H]21)[C@@H](C)O)C(=O)N[C@H](C(=O)N[C@@H](CCCCN)C(=O)N[C@H](C(=O)O)C(C)C)[C@@H](C)O    0.05
2. CC[C@H](C)[C@H](NC(=O)[C@H](CCC(N)=O)NC(=O)[C@@H](NC(=O)[C@H](Cc1c[nH]cn1)NC(=O)[C@H](CCC(N)=O)NC(=O)[C@H](CC(=O)O)NC(=O)[C@H](CCC(=O)O)NC(=O)[C@H](CC(=O)O)NC(=O)[C@H](Cc1ccccc1)NC(=O)[C@@H]1CCCN1C(=O)CCC(=O)NCCCOCCOCCOCCCNC(=O)CCCC[C@@H]1SC[C@@H]2NC(=O)N[C@@H]21)[C@@H](C)O)C(=O)N[C@H](C(=O)N[C@@H](CCCCN)C(=O)N[C@H](C(=O)O)C(C)C)[C@@H](C)O [PTEN_13] ({X1-Suc}-PFDEDQHTQITKV-OH)    -0.059
3. CC[C@H](C)[C@H](NC(=O)[C@H](CCC(N)=O)NC(=O)[C@@H](NC(=O)[C@H](Cc1c[nH]cn1)NC(=O)[C@H](CCC(N)=O)NC(=O)[C@H](CC(=O)O)NC(=O)[C@H](CCC(=O)O)NC(=O)[C@H](CC(=O)O)NC(=O)CCC(=O)NCCCOCCOCCOCCCNC(=O)CCCC[C@@H]1SC[C@@H]2NC(=O)N[C@@H]21)[C@@H](C)O)C(=O)N[C@H](C(=O)N[C@@H](CCCNC(=N)N)C(=O)N[C@H](C(=O)O)C(C)C)[C@@H](C)O [PTEN_KR] ({X1-Suc}-DEDQHTQITRV-OH)    0.065

====

Test system: INADL-3
Experiment: Holdup assay, INADL-3
Format: binding, human
*1 amine or outer side, *2 acyl side, *3 side chain or, on linkers, in order; H or OH if unused. Where a SMILES comes first, the peptide text is derived from it. The star is where a group is joined. X1 = O=C(CCCC[C@@H]1SC[C@@H]2NC(=O)N[C@@H]21)NCCCOCCOCCOCCCN*; Suc = O=C(CCC(=O)[*:2])[*:1]
Quantity: BI

1. CC[C@H](C)[C@H](NC(=O)[C@H](CCC(N)=O)NC(=O)[C@@H](NC(=O)[C@H](Cc1c[nH]cn1)NC(=O)[C@H](CCC(N)=O)NC(=O)[C@H](CC(=O)O)NC(=O)[C@H](CCC(=O)O)NC(=O)[C@H](CC(=O)O)NC(=O)CCC(=O)NCCCOCCOCCOCCCNC(=O)CCCC[C@@H]1SC[C@@H]2NC(=O)N[C@@H]21)[C@@H](C)O)C(=O)N[C@H](C(=O)N[C@@H](CCCNC(=N)N)C(=O)N[C@H](C(=O)O)C(C)C)[C@@H](C)O [PTEN_KR] ({X1-Suc}-DEDQHTQITRV-OH)    -0.042
2. CC[C@H](C)[C@H](NC(=O)[C@H](CCC(N)=O)NC(=O)[C@@H](NC(=O)[C@H](Cc1c[nH]cn1)NC(=O)[C@H](CCC(N)=O)NC(=O)[C@H](CC(=O)O)NC(=O)[C@H](CCC(=O)O)NC(=O)[C@H](CC(=O)O)NC(=O)CCC(=O)NCCCOCCOCCOCCCNC(=O)CCCC[C@@H]1SC[C@@H]2NC(=O)N[C@@H]21)[C@@H](C)O)C(=O)N[C@H](C(=O)N[C@@H](CCCCN)C(=O)N[C@H](C(=O)O)C(C)C)[C@@H](C)O [PTEN_11]    -0.001
3. CC[C@H](C)[C@H](NC(=O)[C@H](CCC(N)=O)NC(=O)[C@@H](NC(=O)[C@H](Cc1c[nH]cn1)NC(=O)[C@H](CCC(N)=O)NC(=O)[C@H](CC(=O)O)NC(=O)[C@H](CCC(=O)O)NC(=O)[C@H](CC(=O)O)NC(=O)CCC(=O)NCCCOCCOCCOCCCNC(=O)CCCC[C@@H]1SC[C@@H]2NC(=O)N[C@@H]21)[C@@H](C)O)C(=O)N[C@H](C(=O)N[C@@H](CCCCNC(C)=O)C(=O)N[C@H](C(=O)O)C(C)C)[C@@H](C)O [PTEN_Ac]    -0.021
4. CC[C@H](C)[C@H](NC(=O)[C@H](CCC(N)=O)NC(=O)[C@@H](NC(=O)[C@H](Cc1c[nH]cn1)NC(=O)[C@H](CCC(N)=O)NC(=O)[C@H](CC(=O)O)NC(=O)[C@H](CCC(=O)O)NC(=O)[C@H](CC(=O)O)NC(=O)[C@H](Cc1ccccc1)NC(=O)[C@@H]1CCCN1C(=O)CCC(=O)NCCCOCCOCCOCCCNC(=O)CCCC[C@@H]1SC[C@@H]2NC(=O)N[C@@H]21)[C@@H](C)O)C(=O)N[C@H](C(=O)N[C@@H](CCCCN)C(=O)N[C@H](C(=O)O)C(C)C)[C@@H](C)O [PTEN_13] ({X1-Suc}-PFDEDQHTQITKV-OH)    0.031
